Experiment: Ocular surface and aqueous humor bioavailability
Type: in vivo, New Zealand White rabbits
Settings: New Zealand White, rabbit, aqueous humor, topical, 30 μl of 1 mM (0.04% w/v) per eye; Compound 14 dosed 1 mM, 1 × 30 uL, 4 eyes; time 1 h; read-out: Aqueous Humor concentration of [14], Mean
Value kind: concentration at 1 h (nM)
Reply numerically in nM, unit not repeated.

QUERY: So what does the record say about concentration at 1 h for Cc1ccc(CN2CC[C@@H](Nc3cccc4cnccc34)C2)cc1OCCOC(=O)c1ccccc1 [Compound 14] ?
RESULT: 0

---

Assay: Ocular surface and aqueous humor bioavailability
Type: in vivo, New Zealand White rabbits
Conditions: New Zealand White, rabbit, ocular surface (saline lavage fluid), topical, 30 μl of 1 mM (0.04% w/v) per eye
Value kind: concentration at 1 h (nM)
Reply numerically in nM, unit not repeated.

QUERY: So what does the record say about concentration at 1 h for Cc1ccc(CN2CC[C@@H](Nc3cccc4cnccc34)C2)cc1OCCO ?
RESULT: 846

---

Assay: Ocular surface and aqueous humor bioavailability
Format: in vivo, New Zealand White rabbits
Settings: New Zealand White, rabbit, ocular surface (saline lavage fluid), topical, 30 μl of 1 mM (0.04% w/v) per eye; Compound 14 dosed 1 mM, 1 × 30 uL, 4 eyes; time 1 h; read-out: Ocular Surface concentration of [14], Mean
Value kind: concentration at 1 h (µM)
Reply numerically in µM, unit not repeated.

QUERY: So what does the record say about concentration at 1 h for Cc1ccc(CN2CC[C@@H](Nc3cccc4cnccc34)C2)cc1OCCOC(=O)c1ccccc1 ?
RESULT: 3.08

---

Target: ROCK1 (Homo sapiens, UniProt Q13464)
Construct: purchased Upstate/Chemicon 14-601
Sequence (Q13464 whole entry): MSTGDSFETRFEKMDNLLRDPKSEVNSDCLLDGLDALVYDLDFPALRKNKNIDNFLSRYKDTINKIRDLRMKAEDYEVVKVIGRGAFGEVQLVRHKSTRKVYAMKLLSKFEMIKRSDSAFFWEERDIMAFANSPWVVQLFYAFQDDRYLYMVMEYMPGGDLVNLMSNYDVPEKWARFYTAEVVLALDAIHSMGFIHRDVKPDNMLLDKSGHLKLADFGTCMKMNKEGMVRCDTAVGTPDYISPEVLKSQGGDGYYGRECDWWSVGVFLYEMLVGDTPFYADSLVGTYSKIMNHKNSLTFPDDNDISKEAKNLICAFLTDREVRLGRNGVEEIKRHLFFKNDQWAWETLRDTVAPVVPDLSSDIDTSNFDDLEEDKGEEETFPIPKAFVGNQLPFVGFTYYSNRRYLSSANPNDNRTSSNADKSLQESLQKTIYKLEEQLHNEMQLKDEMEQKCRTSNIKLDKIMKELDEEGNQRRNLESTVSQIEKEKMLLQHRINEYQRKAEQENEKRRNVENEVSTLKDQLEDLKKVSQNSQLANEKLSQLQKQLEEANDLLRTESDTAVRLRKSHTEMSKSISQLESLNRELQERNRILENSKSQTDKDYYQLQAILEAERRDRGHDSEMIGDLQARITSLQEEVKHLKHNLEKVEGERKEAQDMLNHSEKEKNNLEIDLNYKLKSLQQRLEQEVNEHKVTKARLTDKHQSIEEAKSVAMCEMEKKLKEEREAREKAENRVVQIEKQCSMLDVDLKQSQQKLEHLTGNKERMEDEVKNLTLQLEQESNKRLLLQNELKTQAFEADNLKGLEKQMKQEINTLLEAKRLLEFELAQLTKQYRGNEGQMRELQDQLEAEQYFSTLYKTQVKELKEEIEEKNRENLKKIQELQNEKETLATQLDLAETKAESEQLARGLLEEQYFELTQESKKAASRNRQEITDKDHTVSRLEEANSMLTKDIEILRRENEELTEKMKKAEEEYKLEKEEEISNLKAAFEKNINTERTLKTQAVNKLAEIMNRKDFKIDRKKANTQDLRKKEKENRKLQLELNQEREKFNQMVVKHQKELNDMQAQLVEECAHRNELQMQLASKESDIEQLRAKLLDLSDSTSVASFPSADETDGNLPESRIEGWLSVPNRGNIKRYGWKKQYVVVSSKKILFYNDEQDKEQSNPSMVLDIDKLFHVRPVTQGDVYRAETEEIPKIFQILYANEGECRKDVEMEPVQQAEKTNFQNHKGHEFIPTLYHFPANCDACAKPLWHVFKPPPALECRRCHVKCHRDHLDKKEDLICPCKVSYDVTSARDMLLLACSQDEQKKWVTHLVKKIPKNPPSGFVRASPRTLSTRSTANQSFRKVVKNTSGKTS
Experiment: Rho kinase inhibition assay (IMAP fluorescence polarization), ROCK1
Format: biochemical
pIC50: −log10 of the molar value.
Values of pIC50 greater than or equal to 6 map to 1; values below map to 0.

QUERY: Quick check: does CC(=O)NCc1cccc(CN2CCC[C@@H](Nc3ccc4[nH]ncc4c3)C2)c1 have pIC50 greater than or equal to 6?
RESULT: 0

QUERY: How about O=C(OCCOc1cccc(CN2CCC[C@@H](Nc3ccc4[nH]ncc4c3)C2)c1)c1ccccc1 ?
RESULT: 0

QUERY: How about OCCOc1cccc(CN2CC[C@@H](Nc3cccc4cnccc34)C2)c1 ?
RESULT: 1

---

Assay: Ocular surface and aqueous humor bioavailability
Format: in vivo, New Zealand White rabbits
Conditions: New Zealand White, rabbit, aqueous humor, topical, 30 μl of 1 mM (0.04% w/v) per eye; Compound 14 dosed 1 mM, 1 × 30 uL, 4 eyes; time 2 h; read-out: Aqueous Humor concentration of [14], Mean
Value kind: concentration at 2 h (nM)
Reply numerically in nM, unit not repeated.

QUERY: So what does the record say about concentration at 2 h for Cc1ccc(CN2CC[C@@H](Nc3cccc4cnccc34)C2)cc1OCCOC(=O)c1ccccc1 ?
RESULT: 0

---

Assay: Ocular surface and aqueous humor bioavailability
Assay type: in vivo, New Zealand White rabbits
Conditions: New Zealand White, rabbit, aqueous humor, topical, 30 μl of 1 mM (0.04% w/v) per eye
Value kind: concentration at 2 h

QUERY: So what does the record say about concentration at 2 h for Cc1ccc(CN2CC[C@@H](Nc3cccc4cnccc34)C2)cc1OCCO ?
RESULT: 24 nM

---

Assay: Ocular surface and aqueous humor bioavailability
Assay type: in vivo, New Zealand White rabbits
Settings: New Zealand White, rabbit, ocular surface (saline lavage fluid), topical, 30 μl of 1 mM (0.04% w/v) per eye; Compound 14 dosed 1 mM, 1 × 30 uL, 4 eyes; time 2 h; read-out: Ocular Surface concentration of [14], Mean
Value kind: concentration at 2 h (nM)
Reply numerically in nM, unit not repeated.

QUERY: So what does the record say about concentration at 2 h for Cc1ccc(CN2CC[C@@H](Nc3cccc4cnccc34)C2)cc1OCCOC(=O)c1ccccc1 ?
RESULT: 246

---

Experiment: Ocular surface and aqueous humor bioavailability
Format: in vivo, New Zealand White rabbits
Conditions: New Zealand White, rabbit, ocular surface (saline lavage fluid), topical, 30 μl of 1 mM (0.04% w/v) per eye; Compound 14 dosed 1 mM, 1 × 30 uL, 4 eyes; time 0.83 h; read-out: Ocular Surface concentration of [14], Mean
Value kind: concentration at […] (µM)
Reply numerically in µM, unit not repeated.

QUERY: So what does the record say about concentration at […] for Cc1ccc(CN2CC[C@@H](Nc3cccc4cnccc34)C2)cc1OCCOC(=O)c1ccccc1 ?
RESULT: 24.3

---

Give IC50 for every item shown.
Target: ROCK1 (Homo sapiens, UniProt Q13464)
Construct: purchased Upstate/Chemicon 14-601
Assay: Rho kinase inhibition assay (IMAP fluorescence polarization), ROCK1
Format: biochemical
Answer format: number, then unit.

QUERY: So what does the record say about IC50 for CCOC(=O)c1ccc(CN2CCC[C@@H](Nc3ccc4[nH]ncc4c3)C2)cc1 [Compound 44] ?
RESULT: 117 µM

QUERY: How about CC(=O)NCCOc1cccc(CN2CCC[C@H](Nc3ccc4[nH]ncc4c3)C2)c1 [Compound 30] ?
RESULT: 5.39 µM

QUERY: How about CC(=O)NCCOc1cccc(CN2CCC[C@@H](Nc3ccc4[nH]ncc4c3)C2)c1 [Compound 29] ?
RESULT: 5.16 µM

QUERY: How about Cc1ccc(CN2CC[C@@H](Nc3cccc4cnccc34)C2)cc1OCCO [Compound 49] ?
RESULT: 0.0041 µM

QUERY: How about CCOC(=O)c1ccc(CN2CCC[C@H](Nc3ccc4[nH]ncc4c3)C2)cc1 [Compound 45] ?
RESULT: 45.5 µM

QUERY: How about O=C(COc1cccc(CN2CCC[C@@H](Nc3ccc4[nH]ncc4c3)C2)c1)Nc1cccnc1 [Compound 33] ?
RESULT: 1.01 µM

QUERY: How about CC(C)(C)OC(=O)COc1cccc(CN2CCC[C@H](Nc3ccc4[nH]ncc4c3)C2)c1 [Compound 27] ?
RESULT: 3.44 µM

QUERY: How about O=C(OCCOc1cccc(CN2CCC[C@H](Nc3ccc4[nH]ncc4c3)C2)c1)c1ccccc1 [Compound 31] ?
RESULT: 5.65 µM

---

Biological target: ROCK1 (Homo sapiens)
Construct: purchased Upstate/Chemicon 14-601
Experiment: Rho kinase inhibition assay (IMAP fluorescence polarization), ROCK1
Assay type: biochemical
Conditions: 10 μM ATP, 60 min at room temperature; read-out: ROCK1 IC50
Experimental: Following the pre-incubation, 10 μM ATP was added to initiate the reaction. After 60 minutes at room temperature, Molecular Devices IMAP™ binding solution was added to bind phosphorylated substrate. After 30 minutes of incubation in the presence of the IMAP™ beads, the fluorescence polarization was read and the ratio was reported as mP.
Field: label. Allowed values: Fulfilled (IC50 < 2 µM) or Not fulfilled (IC50 >= 2 µM).

QUERY: Find out if reported IC50 for CC(C)CC(=O)OCCOc1cccc(CN2CC[C@@H](Nc3cccc4cnccc34)C2)c1 is less than 2 µM
RESULT: Not fulfilled

QUERY: How about CC1(C(=O)OCCOc2cccc(CN3CC[C@@H](Nc4cccc5cnccc45)C3)c2)CC1 ?
RESULT: Not fulfilled

QUERY: How about O=C(OCCOc1cccc(CN2CC[C@@H](Nc3cccc4cnccc34)C2)c1)c1cccnc1 ?
RESULT: Fulfilled

QUERY: How about CC(C)(C)C(=O)OCCOc1cccc(CN2CC[C@@H](Nc3cccc4cnccc34)C2)c1 ?
RESULT: Not fulfilled

QUERY: How about Cc1ccc(CN2CC[C@@H](Nc3cccc4cnccc34)C2)cc1OCCOC(=O)c1ccccc1 ?
RESULT: Not fulfilled

QUERY: How about CCOC(=O)OCCOc1cccc(CN2CC[C@@H](Nc3cccc4cnccc34)C2)c1 ?
RESULT: Fulfilled

QUERY: How about Cc1ccc(CN2CCC[C@@H](Nc3ccc4[nH]ncc4c3)C2)cc1OCCOC(=O)c1ccccc1 ?
RESULT: Not fulfilled

The measured values listed here are drawn from patent US20130131059A1.
